biological target: human ether-à-go-go-related gene (hERG) potassium channel (human); assay: primary screen, population patch clamp on CHO cells stably expressing hERG; higher = less effect of the substance
Among all 310,000 compounds or so, about 2,200 (0.71%) showed an effect of 50% or more. The effect is printed as a negative number. The list comes from a sample in which strong results are over-represented; it also holds close analogues and randomly drawn compounds.
What hERG current change (%, negative = inhibition) at 1uM was measured for each of the following?
Give bare numbers, in %.

Please review the entries below; each comes with its answer.
compound: CCN(CC)CCn1c(=N)n(CC(O)COc2cccc(C)c2)c2ccccc21.Cl (stereo not shown)
endpoint.value: -22.1

compound: CCCNc1c(NS(=O)(=O)c2ccc(C(C)(C)C)cc2)c(=O)oc2ccccc12
endpoint.value: 9.75

compound: COc1ccc(Cl)cc1S(=O)(=O)Oc1ccc(NC(C)=O)cc1
endpoint.value: -58.8

compound: O=C(CN(C(=O)C1COc2ccccc2O1)c1ccccc1)NCC1CCCO1 (stereo not shown)
endpoint.value: -9.34

compound: Nc1c(C(=O)c2ccccc2)sc2snc(SCC(=O)c3ccccc3)c12
endpoint.value: 14.8

compound: COC(=O)C1=NN(N=O)C2(CC(=O)N(c3cc(C)cc(C)c3)C2=O)C1 (stereo not shown)
endpoint.value: 9.48

compound: Cc1nn(C)c(Cl)c1CN1CCCC(C(=O)Nc2cccc(-n3cccn3)c2)C1 (stereo not shown)
endpoint.value: -3.6

compound: CC(=O)Nc1ccc(OS(=O)(=O)c2cc(Cl)ccc2C)cc1
endpoint.value: 13.6

compound: CCC(=O)n1nc(-c2ccc(Cl)cc2)nc1NCc1ccccc1
endpoint.value: 8.9

Now take the following compound into account.
Which hERG current change (%, negative = inhibition) at 1uM reading was recorded for the compound CCCCn1c(=N)n(CC(O)COc2cccc(C)c2)c2ccccc21.Cl (stereo not shown) ?
-59.8

###

molecular target: human ether-à-go-go-related gene (hERG) potassium channel (human, UniProt Q12809); experiment: primary screen, population patch clamp on CHO cells stably expressing hERG; higher = less effect of the substance
Sequence (Q12809 whole entry, looked up): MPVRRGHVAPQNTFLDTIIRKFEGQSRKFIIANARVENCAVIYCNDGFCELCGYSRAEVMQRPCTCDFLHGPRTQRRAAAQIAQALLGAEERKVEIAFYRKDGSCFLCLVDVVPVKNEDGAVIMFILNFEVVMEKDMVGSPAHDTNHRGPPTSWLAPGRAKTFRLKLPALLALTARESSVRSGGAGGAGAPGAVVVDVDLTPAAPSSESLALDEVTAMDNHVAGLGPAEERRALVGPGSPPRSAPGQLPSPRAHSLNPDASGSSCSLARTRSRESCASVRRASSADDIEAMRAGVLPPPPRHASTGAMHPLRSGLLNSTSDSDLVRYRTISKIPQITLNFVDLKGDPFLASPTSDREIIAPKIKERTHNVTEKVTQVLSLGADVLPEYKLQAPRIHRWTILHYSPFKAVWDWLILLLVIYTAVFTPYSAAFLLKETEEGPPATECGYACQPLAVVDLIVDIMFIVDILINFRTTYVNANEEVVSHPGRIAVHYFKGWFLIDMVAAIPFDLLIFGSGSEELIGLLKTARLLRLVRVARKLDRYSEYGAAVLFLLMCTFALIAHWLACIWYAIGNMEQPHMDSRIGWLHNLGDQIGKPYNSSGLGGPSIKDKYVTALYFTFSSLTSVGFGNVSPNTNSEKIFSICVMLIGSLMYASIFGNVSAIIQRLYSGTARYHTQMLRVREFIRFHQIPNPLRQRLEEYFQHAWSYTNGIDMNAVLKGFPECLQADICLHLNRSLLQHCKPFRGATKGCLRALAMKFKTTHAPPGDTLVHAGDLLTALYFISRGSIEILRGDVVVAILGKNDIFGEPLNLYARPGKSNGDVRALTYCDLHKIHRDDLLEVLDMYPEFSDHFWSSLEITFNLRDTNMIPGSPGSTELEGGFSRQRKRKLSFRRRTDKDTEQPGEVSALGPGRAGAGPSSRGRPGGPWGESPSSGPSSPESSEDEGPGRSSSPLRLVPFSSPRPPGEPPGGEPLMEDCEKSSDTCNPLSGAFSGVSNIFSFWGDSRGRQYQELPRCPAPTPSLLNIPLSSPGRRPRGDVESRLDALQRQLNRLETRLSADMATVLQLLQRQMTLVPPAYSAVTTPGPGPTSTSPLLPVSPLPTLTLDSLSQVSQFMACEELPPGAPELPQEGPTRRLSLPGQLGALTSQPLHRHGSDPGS
In all, about 310,000 compounds went through this assay and about 2,200 (0.71%) showed an effect of 50% or more. Effects have a minus sign here. The sample holds strong results, similar compounds and a random draw of the others, so the mix is not that of the screen.
outcome.measure: hERG current change (%, negative = inhibition) at 1uM (%)
Answers are plain numbers, in %.

Worked cases, hERG current change (%, negative = inhibition) at 1uM given:
test.smiles: O=C(Nc1ccc2c(c1)OCCO2)C1CCN(C(=O)c2ccc(Cl)cc2)CC1
display.unit: %
endpoint.value: 3.04
--
test.smiles: COc1ccc(NC(=S)N(CCc2ccc(OC)c(OC)c2)Cc2ccccn2)cc1
display.unit: %
endpoint.value: 0.952
--
test.smiles: COC(=O)c1ccc(NC(=O)c2cc[n+]([O-])cc2)cc1
display.unit: %
endpoint.value: 10.9
--
test.smiles: COc1cc(C(=S)N2CCOCC2)cc(OC)c1OC(=O)c1ccc([N+](=O)[O-])cc1[N+](=O)[O-]
display.unit: %
endpoint.value: 5.28

Please look at the items below and tell me hERG current change (%, negative = inhibition) at 1uM for each one, in order.
1. O=C(c1cccc(Cl)c1)N1CCC(c2nc3ccccc3[nH]2)CC1
2. COc1ccc(C(=S)N2CCOCC2)cc1OC(=O)c1ccc([N+](=O)[O-])cc1[N+](=O)[O-]
3. O=C(Nc1ccc2c(c1)OCO2)C1CCN(C(=O)c2ccc(Cl)cc2)CC1

-0.145
-63.1
-59.6
